TARGET_OR_TEST_SYSTEM: Myc proto-oncogene protein (Homo sapiens, UniProt P01106)
Sequence (P01106 whole entry): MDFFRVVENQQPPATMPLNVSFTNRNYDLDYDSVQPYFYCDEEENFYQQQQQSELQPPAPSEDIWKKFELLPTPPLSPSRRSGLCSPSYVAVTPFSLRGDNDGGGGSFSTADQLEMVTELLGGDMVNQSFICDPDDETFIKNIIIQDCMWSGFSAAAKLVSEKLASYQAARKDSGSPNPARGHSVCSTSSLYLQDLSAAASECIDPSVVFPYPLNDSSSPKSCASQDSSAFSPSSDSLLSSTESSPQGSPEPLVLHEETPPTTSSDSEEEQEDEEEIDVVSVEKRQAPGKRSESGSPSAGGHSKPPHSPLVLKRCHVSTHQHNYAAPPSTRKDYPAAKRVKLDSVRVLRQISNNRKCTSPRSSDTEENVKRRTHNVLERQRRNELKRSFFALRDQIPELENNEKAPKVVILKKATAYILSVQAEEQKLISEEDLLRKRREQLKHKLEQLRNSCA
MEASUREMENT_DESCRIPTION: Inhibition of human c-Myc assessed as reduction in c-Myc/Max/Ebox DNA complex formation using pre-formed complex of c-Myc and biotinylated DNA containing single Ebox-sequence followed by compound addition and further addition of his6-tagged c-Max and incubated for 2 hrs by AlphaScreen assay
ASSAY_READOUT: IC50

| COMPOUND | ASSAY_READOUT | OBSERVED_VALUE |
| --- | --- | --- |
| COCCNCCC(=O)Nc1sc2c(c1-c1nc3cc(-c4ccc(F)nc4F)ccc3s1)CCNC2 | IC50 | 300 to 1000 nM |

[in] Fill in: IC50 of `COCCNCCC(=O)Nc1sc2c(c1-c1nc3cc(-c4ccccc4)ccc3s1)CCNC2` is ___
[out] 1000 to 10000 nM

[in] Fill in: IC50 of `CC(C)NCCC(=O)Nc1sc2c(c1-c1nc3c(NC(=O)c4ccccc4)cccc3s1)CCNC2` is ___
[out] 1000 to 10000 nM

[in] Fill in: IC50 of `COCCNCCC(=O)Nc1sc2c(c1-c1nc3cc(-c4cc5cccc(OC)c5[nH]4)ccc3s1)CCNC2` is ___
[out] 1000 to 10000 nM

[in] Fill in: IC50 of `COCCNCCC(=O)Nc1sc2c(c1-c1nc3cc(-c4ccc5ncnn5c4)ccc3s1)CCNC2` is ___
[out] < 300 nM

[in] Fill in: IC50 of `COCCNCCC(=O)Nc1sc2c(c1-c1nc3cc(-c4c[nH]nc4C)ccc3s1)CCNC2` is ___
[out] 300 to 1000 nM

[in] Fill in: IC50 of `COCCNCCC(=O)Nc1sc2c(c1-c1nc3cc(-c4cccc5cccnc45)ccc3s1)CCNC2` is ___
[out] > 10000 nM

[in] Fill in: IC50 of `COCCNCCC(=O)Nc1sc2c(c1-c1nc3ccc(-c4ccnc(C)c4)cc3s1)CCNC2` is ___
[out] 300 to 1000 nM

---

TARGET_OR_TEST_SYSTEM: Myc proto-oncogene protein (Homo sapiens, UniProt P01106)
MEASUREMENT_DESCRIPTION: Inhibition of human c-Myc assessed as reduction in c-Myc/Max/Ebox DNA complex formation using pre-formed complex of c-Myc and biotinylated DNA containing single Ebox-sequence followed by compound addition and further addition of his6-tagged c-Max and incubated for 2 hrs by AlphaScreen assay
ASSAY_READOUT: IC50

Here are 4 compounds together with their reported answers.
| CHEMICAL_STRUCTURE | IC50 |
| --- | --- |
| COCCNCCC(=O)Nc1sc2c(c1-c1nc3ccc(-c4cccc(C(F)(F)F)c4)cc3s1)CCNC2 | > 10 µM |
| COCCNCCC(=O)Nc1sc2c(c1-c1nc3ccc(-c4ccc(OC)c(OC)c4)cc3s1)CCNC2 | > 10 µM |
| CC(C)NCCC(=O)Nc1sc2c(c1-c1nc3cc(-c4nn[nH]n4)ccc3s1)CCNC2 | < 0.3 µM |
| COCCNCCC(=O)Nc1sc2c(c1-c1nc3cc(-c4cnccc4C)ccc3s1)CCNC2 | 1 to 10 µM |

With those in mind, consider the next compound.
[in] Fill in: IC50 of `COCCNCCC(=O)Nc1sc2c(c1-c1nc3ccc(-c4ccccc4O)cc3s1)CCNC2` is ___
[out] > 10 µM

From: ChEMBL document CHEMBL4476874
